- Tested on: OVCAR-3
- method: NCI tumour cell line growth inhibition, 48 h
Active and inactive are the calls of the source. Rule as the data show it: active = GI50 up to about 1.1 µM and inactive = higher.
Could you please pick one outcome from this set? 1 for active, -1 for inactive

input: For `NCCCC[C@H](N)C(=O)Nc1ccc(-c2nc3ccccc3s2)cc1Cl` , which call appears in the assay record?
output: 1

input: Same read-out for `COCCOCCOCCOc1cccc2c1C(=O)c1cccc(OCCOCCOCCOC)c1C2=O` ?
output: -1

input: Same read-out for COc1ccc2cc1Oc1ccc(cc1)C[C@@H]1c3cc(c(OC)cc3CCN1C)Oc1c(OC)c(OC)cc3c1[C@H](C2)N(C)CC3 [ISOTETRANDRINE] ?
output: -1

input: Same read-out for `N#Cc1cccc(/C=N/C23CC4CC(CC(C4)C2)C3)c1` ?
output: -1

input: Same read-out for Cc1cn(C2CC(N(O)Cc3ccccc3)C(CO[Si](C)(C)C(C)(C)C)O2)c(=O)[nH]c1=O (stereo not given) ?
output: -1

input: Same read-out for Cc1cn(CCC(N)C(=O)O)c(=O)[nH]c1=O (stereo not given) ?
output: -1

input: Same read-out for `Cc1sc2nc(-c3cccc([N+](=O)[O-])c3)c(/C=N/N=C(N)N)n2c1C` ?
output: -1

input: Same read-out for `O=C1C(=O)N(c2cc(Cl)ccc2Cl)C(=O)C(=O)C1c1nc2ccccc2o1` ?
output: -1

input: Same read-out for C=CCOC1=C(OC(C)=O)C(C2COC(C)(C)O2)OC1=O (stereo not given) ?
output: -1

input: Same read-out for `CN(C)Cc1cc(/N=N/c2ccccc2)ccc1O` ?
output: -1

---

- Tested on: NCI-H460
- method: NCI tumour cell line growth inhibition, 48 h
Active and inactive are the calls of the source. Cut-off read from the data, not from the text of the source: active = GI50 up to about 1.1 µM and inactive = higher. Bridge positions count the residues as written; N and C are the ends. Square brackets hold non-standard residues; d marks the D form. Peptide text beside a SMILES is read from it. * marks the point of attachment. Cbz = O=C(OCc1ccccc1)*; Dab = NCC[CH](N)C(=O)O; Bn = c1ccc(C*)cc1
metric.name: GI50

input: Enter reported GI50 observed with NCI-H460 for `CCOC(=O)NN1C(=O)C(=P(c2ccccc2)(c2ccccc2)c2ccccc2)C(C(=O)OC)=C1C`
output: > 100 µM (inactive)

input: Same read-out for COC(=O)[C@]12CC3C=CC1N(C3)C(CBr)c1c2n(S(=O)(=O)c2ccccc2)c2ccccc12 (stereo partly drawn) ?
output: 98.6 µM (inactive)

input: Same read-out for CN(NC1OC(CO)C(O)C(O)C1O)c1ccccc1 (stereo not drawn) ?
output: > 100 µM (inactive)

input: Same read-out for CC1CN(C(=O)CN2CCC(CCCCN(C)C)CC2)c2ccccc2NC1=O (stereo not drawn) ?
output: > 100 µM (inactive)

input: Same read-out for `C=C1[C@@](C)([C@@H]2CCCS2)[C@H]2C(C)=C[C@]1(C)n1c(=O)n(-c3ccccc3)c(=O)n12` ?
output: > 100 µM (inactive)

input: Same read-out for CC(C)CC1NC(=O)C(Cc2ccccc2)NC(=O)C(Cc2ccccc2)NC(=O)C(NC(=O)C(Cc2ccc(OCc3ccccc3)cc2)NC(=O)OCc2ccccc2)CCNC1=O (stereo not drawn) (Cbz-Y(Bn)[Dab]FFL; lactam 2-C; configuration not given here) ?
output: 35.1 µM (inactive)

input: Same read-out for COc1cc2c(c(O)c1OC)-c1c(cc(OC)c(OC)c1OC)CC(C)C(C)C2 (stereo not drawn) [GOMISIN K3] ?
output: 31.2 µM (inactive)

input: Same read-out for [N-]=[N+]=NC(c1cn(C2CC(O)C(CO)O2)c(=O)[nH]c1=O)C(Br)I (stereo not drawn) ?
output: > 100 µM (inactive)
